For each of the binders below, state its koff.
# target.system: T1, human RANKL protein (Sino Biological, 11682-HNCH) (human, UniProt O14788 136-317, limits assumed)
# T1 construct: Bought protein
# T1 sequence (looked up): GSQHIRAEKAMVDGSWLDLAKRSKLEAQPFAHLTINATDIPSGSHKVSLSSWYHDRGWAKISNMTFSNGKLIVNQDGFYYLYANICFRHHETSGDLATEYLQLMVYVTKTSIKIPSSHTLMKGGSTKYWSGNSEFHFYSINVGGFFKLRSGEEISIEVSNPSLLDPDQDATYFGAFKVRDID
# protocol.details: SPR (Biacore), antibody captured on Protein A chip, RANKL in flow, 1:1 fit
Return type: number; implicit unit s⁻¹.

Problem: What value of koff has been recorded for this entry: 5-58H (antibody, V domains shown, Variable regions fused to human constant regions) VH: EVQLLESGGGLVQPGGSLRLSCAASGFTFSSYAMSWVRQAPGKGLEWVSGITGSGGSTYYADSVKGRFTISRDNSKNTLYLQMNSLRAEDTAVYYCVQDPGFTYIMSWFDPWGQGTLVTVSS VL: EIVLTQSPGTLSLSPGERATLSCRASQSVRGRYLAWYQQKPGQAPRLLIYGASSRATGIPDRFSGSGSGTDFTLTISRLEPEDFAVFYCQQYGSSPRTFGQGTKVEIK
Solution: 0.000501

Problem: For 3-85L (antibody, V domains shown, Variable regions fused to human constant regions) VH: EVQLLESGGGLVQPGGSLRLSCAASGFTFSSYAMSWVRQAPGKGLEWVSGITGSGGSTYYADSVKGRFTISRDNSKNTLYLQMNSLRAEDTAVYYCAKDPGTTVIMSWFDPWGQGTLVTVSS VL: EIVLTQSPGTLSLSPGERATLSCRASQSIPGPRLAWYQQKPGQAPRLLIYGASSRATGIPDRFSGSGSGTDFTLTISRLEPEDFAVFYCQQYGSSPRTFGQGTKVEIK , what is its reported koff?
Solution: 0.000335

Problem: Form field: reported koff of 3-83L (antibody, V domains shown, Variable regions fused to human constant regions) VH: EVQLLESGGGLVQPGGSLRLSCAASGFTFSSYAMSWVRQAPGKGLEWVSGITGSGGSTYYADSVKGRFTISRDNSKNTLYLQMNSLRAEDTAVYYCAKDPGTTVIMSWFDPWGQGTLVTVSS VL: EIVLTQSPGTLSLSPGERATLSCRASQALGVRGLAWYQQKPGQAPRLLIYGASSRATGIPDRFSGSGSGTDFTLTISRLEPEDFAVFYCQQYGSSPRTFGQGTKVEIK
Solution: 0.000322
